Reported pIC50 values for a set of compounds
Target: Lysine-specific demethylase 4E (Homo sapiens)
Sequence (B2RXH2 whole entry): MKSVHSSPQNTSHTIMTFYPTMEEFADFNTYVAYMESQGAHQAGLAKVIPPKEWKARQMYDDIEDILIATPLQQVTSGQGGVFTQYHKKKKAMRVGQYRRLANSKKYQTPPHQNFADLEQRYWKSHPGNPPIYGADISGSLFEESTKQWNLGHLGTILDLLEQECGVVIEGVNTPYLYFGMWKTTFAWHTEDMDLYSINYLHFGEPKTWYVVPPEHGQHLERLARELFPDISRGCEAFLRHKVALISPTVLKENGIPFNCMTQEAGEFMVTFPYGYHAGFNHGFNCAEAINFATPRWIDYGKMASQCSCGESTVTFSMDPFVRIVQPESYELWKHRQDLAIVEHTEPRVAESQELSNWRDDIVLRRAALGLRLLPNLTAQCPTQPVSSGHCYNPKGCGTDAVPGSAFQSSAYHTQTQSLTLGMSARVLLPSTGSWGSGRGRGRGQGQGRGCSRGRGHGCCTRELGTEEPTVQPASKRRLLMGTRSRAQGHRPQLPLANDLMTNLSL
Assay: Inhibition of N-terminal His6-tagged KDM4E (1 to 337 residues) (unknown origin) expressed in Escherichia coli BL21 (DE3)-R3 preincubated for 10 mins followed by substrate addition by fluorescence based FDH-coupled assay
pIC50: −log10 of the molar value.

[
  {
    "SMILES_STRING": "CNC(=O)CCc1c(C)nn(-c2nc3ccccc3[nH]2)c1O",
    "pIC50": 4.39
  },
  {
    "SMILES_STRING": "COC(=O)CCc1c(C)nn(-c2nc3ccccc3[nH]2)c1O",
    "pIC50": 4.14
  },
  {
    "SMILES_STRING": "Cc1nn(-c2ccccn2)c(O)c1Cc1ccccc1",
    "pIC50": 4.24
  },
  {
    "SMILES_STRING": "Cc1nn(-c2nc3ccc(C(=O)O)cc3[nH]2)c(O)c1-c1ccccc1",
    "pIC50": 4.72
  },
  {
    "SMILES_STRING": "Cc1nn(-c2ccc(Cl)nn2)c(O)c1-c1ccccc1",
    "pIC50": 4.17
  },
  {
    "SMILES_STRING": "Cc1nn(-c2nc3ccccc3[nH]2)c(O)c1CCC(=O)N(C)C",
    "pIC50": 4.80
  },
  {
    "SMILES_STRING": "CCCc1c(C)nn(-c2nc3ccccc3[nH]2)c1O",
    "pIC50": 4.62
  }
]

Origin of the recorded values: ChEMBL document CHEMBL4842380
